Field: IC50. Provide a value for each of the compounds that follow.
# Assay Details: Cytotoxicity against HEK293 cells transfected with recombinant AOR by MTT assay
Answers are plain numbers, in nM.

The cases that follow already have their IC50 on record.
[[record]]
smiles_input = "CC1=CC2=C(C)C3(CC3)[C@](C)(O)C(=O)C2=C1"
value_kind = "IC50"
readout_number = 5000

[[record]]
smiles_input = "CC1=C(CO)C2=C(C)C3(CC3)[C@](C)(O)C(=O)C2=C1"
value_kind = "IC50"
readout_number = 1420

[[record]]
smiles_input = "CC1=CC2=C(C)C3(CC3)[C@@](C)(O)C(=O)C2=C1"
value_kind = "IC50"
readout_number = 95


Please examine the following record next.
Prompt: Using the record for `CC1=C(CO)C2=C(C)C3(CC3)[C@@](C)(O)C(=O)C2=C1` , report its IC50.
Completion: 55

The values you see were collected from BindingDB's records for doi:10.1021/jm051104t.
